The reported measurements were obtained from patent US12103919B2.

Parameter: DC50. Scope: all listed entries.
# Assayed target: WIZ (Homo sapiens, UniProt O95785+Q96SW2)
# Construct: expressed in transfected cells
# Sequence (O95785 whole entry): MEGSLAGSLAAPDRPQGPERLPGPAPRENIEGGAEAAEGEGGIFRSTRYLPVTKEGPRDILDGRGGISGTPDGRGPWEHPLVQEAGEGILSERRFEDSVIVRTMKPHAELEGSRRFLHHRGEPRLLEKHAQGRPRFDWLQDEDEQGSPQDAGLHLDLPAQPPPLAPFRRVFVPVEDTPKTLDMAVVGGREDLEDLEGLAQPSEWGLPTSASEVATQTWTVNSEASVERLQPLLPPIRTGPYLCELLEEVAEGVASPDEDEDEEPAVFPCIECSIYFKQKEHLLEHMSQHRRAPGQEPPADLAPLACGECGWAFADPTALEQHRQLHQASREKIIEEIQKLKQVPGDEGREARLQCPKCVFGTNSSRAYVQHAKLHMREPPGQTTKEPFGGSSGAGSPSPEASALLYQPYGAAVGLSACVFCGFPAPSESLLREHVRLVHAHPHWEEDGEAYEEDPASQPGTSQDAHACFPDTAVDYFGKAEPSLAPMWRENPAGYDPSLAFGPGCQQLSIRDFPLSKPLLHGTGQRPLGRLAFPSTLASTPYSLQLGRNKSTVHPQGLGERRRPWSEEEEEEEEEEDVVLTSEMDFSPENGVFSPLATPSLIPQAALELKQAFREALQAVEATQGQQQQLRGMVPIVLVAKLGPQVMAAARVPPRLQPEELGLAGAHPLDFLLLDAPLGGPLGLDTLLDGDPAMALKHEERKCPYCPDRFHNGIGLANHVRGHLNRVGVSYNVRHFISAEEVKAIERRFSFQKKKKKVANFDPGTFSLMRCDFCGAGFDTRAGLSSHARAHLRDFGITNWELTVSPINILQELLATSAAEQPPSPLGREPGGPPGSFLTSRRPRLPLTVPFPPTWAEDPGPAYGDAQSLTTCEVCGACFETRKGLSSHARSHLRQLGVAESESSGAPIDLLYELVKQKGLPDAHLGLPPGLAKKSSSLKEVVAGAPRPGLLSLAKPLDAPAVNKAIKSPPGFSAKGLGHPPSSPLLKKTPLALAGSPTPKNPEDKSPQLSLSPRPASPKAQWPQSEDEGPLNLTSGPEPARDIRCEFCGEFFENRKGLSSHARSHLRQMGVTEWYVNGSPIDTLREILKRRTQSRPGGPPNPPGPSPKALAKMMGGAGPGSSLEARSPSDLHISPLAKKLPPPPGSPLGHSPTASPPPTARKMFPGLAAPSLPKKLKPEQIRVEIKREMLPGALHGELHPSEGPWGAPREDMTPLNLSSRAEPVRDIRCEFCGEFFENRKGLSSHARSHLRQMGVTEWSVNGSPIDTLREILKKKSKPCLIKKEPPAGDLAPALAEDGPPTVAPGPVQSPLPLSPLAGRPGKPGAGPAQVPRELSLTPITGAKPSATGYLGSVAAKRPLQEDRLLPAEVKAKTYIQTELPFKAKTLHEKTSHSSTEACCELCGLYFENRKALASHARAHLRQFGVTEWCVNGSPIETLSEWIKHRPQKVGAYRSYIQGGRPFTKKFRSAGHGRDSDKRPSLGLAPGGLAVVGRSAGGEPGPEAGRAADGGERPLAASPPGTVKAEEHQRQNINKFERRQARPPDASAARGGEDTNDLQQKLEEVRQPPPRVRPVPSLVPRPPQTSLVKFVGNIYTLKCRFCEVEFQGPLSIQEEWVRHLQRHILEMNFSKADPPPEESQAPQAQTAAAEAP
# Sequence (Q96SW2 whole entry): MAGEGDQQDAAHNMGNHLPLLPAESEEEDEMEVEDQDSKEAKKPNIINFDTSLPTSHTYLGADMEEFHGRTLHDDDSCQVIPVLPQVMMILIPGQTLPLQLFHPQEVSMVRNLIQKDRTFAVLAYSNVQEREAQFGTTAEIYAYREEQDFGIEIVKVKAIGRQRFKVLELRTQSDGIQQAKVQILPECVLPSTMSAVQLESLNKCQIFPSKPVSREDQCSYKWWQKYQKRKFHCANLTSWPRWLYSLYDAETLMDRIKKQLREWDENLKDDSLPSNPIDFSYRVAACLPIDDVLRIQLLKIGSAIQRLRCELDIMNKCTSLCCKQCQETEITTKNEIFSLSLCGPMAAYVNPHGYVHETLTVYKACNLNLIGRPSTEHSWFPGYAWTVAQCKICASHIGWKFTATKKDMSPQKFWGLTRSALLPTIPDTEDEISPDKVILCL
# Sequence (Q16531 whole entry partner): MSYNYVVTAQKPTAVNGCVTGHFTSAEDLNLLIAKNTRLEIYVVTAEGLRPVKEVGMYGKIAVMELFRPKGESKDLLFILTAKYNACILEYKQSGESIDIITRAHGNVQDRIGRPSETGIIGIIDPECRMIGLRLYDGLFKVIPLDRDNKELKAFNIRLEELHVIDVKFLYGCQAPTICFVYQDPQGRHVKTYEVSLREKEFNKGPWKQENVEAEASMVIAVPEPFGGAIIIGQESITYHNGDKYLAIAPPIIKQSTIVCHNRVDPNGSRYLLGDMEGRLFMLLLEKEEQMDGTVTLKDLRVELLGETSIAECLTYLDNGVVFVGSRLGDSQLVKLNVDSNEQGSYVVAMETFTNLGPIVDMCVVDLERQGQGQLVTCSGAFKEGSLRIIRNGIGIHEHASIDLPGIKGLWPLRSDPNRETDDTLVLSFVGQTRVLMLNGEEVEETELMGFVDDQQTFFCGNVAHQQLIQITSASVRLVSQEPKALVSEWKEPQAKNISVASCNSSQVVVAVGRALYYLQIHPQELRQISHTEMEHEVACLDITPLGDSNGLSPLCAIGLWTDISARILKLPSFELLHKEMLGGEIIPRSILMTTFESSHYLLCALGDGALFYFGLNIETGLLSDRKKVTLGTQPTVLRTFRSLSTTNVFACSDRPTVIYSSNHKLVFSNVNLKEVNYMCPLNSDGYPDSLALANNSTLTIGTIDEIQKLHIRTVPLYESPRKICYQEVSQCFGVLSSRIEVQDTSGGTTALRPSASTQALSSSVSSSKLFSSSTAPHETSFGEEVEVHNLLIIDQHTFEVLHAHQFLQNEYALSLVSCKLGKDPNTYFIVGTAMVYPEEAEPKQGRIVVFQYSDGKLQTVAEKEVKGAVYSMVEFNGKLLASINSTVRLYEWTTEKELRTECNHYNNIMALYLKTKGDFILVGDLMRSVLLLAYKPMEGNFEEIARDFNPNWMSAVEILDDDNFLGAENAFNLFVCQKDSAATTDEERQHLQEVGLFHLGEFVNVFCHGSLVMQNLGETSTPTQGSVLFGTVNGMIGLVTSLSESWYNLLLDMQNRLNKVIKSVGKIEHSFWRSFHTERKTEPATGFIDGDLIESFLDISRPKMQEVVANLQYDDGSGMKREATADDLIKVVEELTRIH
# Procedure details: Quantification of WIZ protein levels in HiBit tag fusion protein assay (293T cells)
# Format: cell-based
# Recorded conditions: WIZ HiBit assay in 293T cells, about 18 hours, 10-point 5-fold dilution, top 25 μM; read-out: WIZ AC50

{"columns": ["Compound", "Value prefix", "DC50 / nM"],
 "data": [
  ["C[C@H]1CC[C@@H](Oc2ccc3c(c2)CN(C2CCC(=O)NC2=O)C3=O)CN1S(C)(=O)=O (stereo partly drawn) [Example 85]", "=", 67.2],
  ["CC(C)N1C[C@H](O)C[C@@H](Oc2ccc3c(c2)CN(C2CCC(=O)NC2=O)C3=O)C1 (stereo partly drawn) [Example 67]", "=", 11.2],
  ["CCN1CC[C@@H](Oc2ccc3c(c2)CN(C2CCC(=O)NC2=O)C3=O)C1 (stereo partly drawn) [Example 39]", "=", 210],
  ["CC[C@H](C)N1CCC(C)(C)C(Oc2ccc3c(c2)CN(C2CCC(=O)NC2=O)C3=O)C1 (single isomer, unassigned) [Example 51]", "=", 200],
  ["O=C1CCC(N2Cc3cc(O[C@@H]4CCCN(C5CC(F)(F)C5)C4)ccc3C2=O)C(=O)N1 (mixture of isomers) [Example 29]", "=", 82],
  ["CC[C@H](C)N1CCC2(CC2)[C@@H](Oc2ccc3c(c2)CN(C2CCC(=O)NC2=O)C3=O)C1 (stereo partly drawn) [Example 17]", "=", 14],
  ["CC(C)CN1C[C@H](C)C[C@@H](Oc2ccc3c(c2)CN(C2CCC(=O)NC2=O)C3=O)C1 (stereo partly drawn) [Example 79]", "=", 1.7],
  ["O=C1CCC(N2Cc3cc(O[C@@H]4CCCN(CC5CCC5)C4)ccc3C2=O)C(=O)N1 (stereo partly drawn) [Example 7]", "=", 1.1],
  ["CCN1C[C@@H](F)C[C@@H](Oc2ccc3c(c2)CN(C2CCC(=O)NC2=O)C3=O)C1 (stereo partly drawn) [Example 59]", "=", 2.6],
  ["CCN1C[C@H]2C[C@H]2[C@H](Oc2ccc3c(c2)CN(C2CCC(=O)NC2=O)C3=O)C1 (single isomer, unassigned) [Example 20]", "=", 3750],
  ["CCN1CC2CC(Oc3ccc4c(c3)CN(C3CCC(=O)NC3=O)C4=O)C1C2 (racemic) [Example 62]", "=", 83],
  ["O=C1CCC(N2Cc3cc(O[C@@H]4CCCN(C5COC5)C4)ccc3C2=O)C(=O)N1 (stereo partly drawn) [Example 12]", "=", 130],
  ["CCN1CC[C@H](F)[C@H](Oc2ccc3c(c2)CN(C2CCC(=O)NC2=O)C3=O)C1 (relative stereo) [Example 58]", "=", 4.9],
  ["CCOC(=O)N1C[C@H](OCC)C[C@@H](Oc2ccc3c(c2)CN(C2CCC(=O)NC2=O)C3=O)C1 (stereo partly drawn) [Example 69]", ">", 25000],
  ["CC#CCN1CCC[C@@H](Oc2ccc3c(c2)CN(C2CCC(=O)NC2=O)C3=O)C1 (stereo partly drawn) [Example 24]", "=", 10],
  ["CC(C)CN1CCCC[C@@H](Oc2ccc3c(c2)CN(C2CCC(=O)NC2=O)C3=O)C1 (stereo partly drawn) [Example 38]", "=", 25],
  ["CO[C@H]1C[C@H](CN2CCC[C@@H](Oc3ccc4c(c3)CN(C3CCC(=O)NC3=O)C4=O)C2)C1 (stereo partly drawn) [Example 27]", "=", 130],
  ["CC(C)CN1CCC2(CC2)[C@@H](Oc2ccc3c(c2)CN(C2CCC(=O)NC2=O)C3=O)C1 (stereo partly drawn) [Example 16]", "=", 2.5],
  ["CC[C@H](C)N1CCC[C@@H](Oc2ccc3c(c2)CN(C2CCC(=O)NC2=O)C3=O)C1 (stereo partly drawn) [Example 33]", "=", 1.5],
  ["CC(C)N1C[C@H](Oc2ccc3c(c2)CN(C2CCC(=O)NC2=O)C3=O)CC[C@@H]1C (stereo partly drawn) [Example 81]", "=", 2],
  ["CCO[C@@H]1C[C@@H](Oc2ccc3c(c2)CN(C2CCC(=O)NC2=O)C3=O)CN(S(C)(=O)=O)C1 (stereo partly drawn) [Example 71]", "=", 45.3],
  ["CC(=O)N1C[C@H](Oc2ccc3c(c2)CN(C2CCC(=O)NC2=O)C3=O)CC[C@@H]1C (stereo partly drawn) [Example 86]", ">", 25000],
  ["CCN1C[C@@H]2C[C@@H]2[C@@H](Oc2ccc3c(c2)CN(C2CCC(=O)NC2=O)C3=O)C1 (single isomer, unassigned) [Example 21]", "=", 3.5],
  ["CCN1C[C@H](F)C[C@@H](Oc2ccc3c(c2)CN(C2CCC(=O)NC2=O)C3=O)C1 (stereo partly drawn) [Example 60]", "=", 78],
  ["CCN1CCC2(CC2)[C@@H](Oc2ccc3c(c2)CN(C2CCC(=O)NC2=O)C3=O)C1 (stereo partly drawn) [Example 15]", "=", 8.4],
  ["CCOC(=O)N1C[C@H](Oc2ccc3c(c2)CN(C2CCC(=O)NC2=O)C3=O)CC[C@@H]1C (stereo partly drawn) [Example 83]", ">", 25000],
  ["CCN1CC(Oc2ccc3c(c2)CN(C2CCC(=O)NC2=O)C3=O)CC2(CC2)C1 (single isomer, unassigned) [Example 18]", "=", 20],
  ["CNC(=O)N1C[C@H](Oc2ccc3c(c2)CN(C2CCC(=O)NC2=O)C3=O)CC[C@@H]1C (stereo partly drawn) [Example 84]", "=", 1170],
  ["CCN1C[C@H](O)C[C@@H](Oc2ccc3c(c2)CN(C2CCC(=O)NC2=O)C3=O)C1 (mixture of isomers) [Example 34]", "=", 15],
  ["CCO[C@H]1C[C@@H](N2CCC[C@@H](Oc3ccc4c(c3)CN(C3CCC(=O)NC3=O)C4=O)C2)C1 (stereo partly drawn) [Example 26]", "=", 21]
]}
